study_target: T1, human LILRB4 (human, UniProt Q8NHJ6 22-259, limits assumed)
T1 construct: also called leukocyte immunoglobulin-like receptor subfamily B member 4
assay_summary: ELISA
value_kind: EC50 (nM)
Hi! Could you send only the number? It should be in nM, unit omitted.

{"columns": ["binder", "EC50 (nM)"],
 "data": [
  ["anti-LILRB4 rabbit monoclonal antibody #156-1 (antibody, V domains shown, Rabbit mAb) VH: QSVKESEGDLVKPGASLTLTCRASGFSFSSDYNMCWVRQAAGKGLEWIACIGVGTSGKTAYATWAKGRFTISRSSSTTVALQMTSLTVADTATYFCARPSYGSGGEGGGSGLWGPGTLVTISS VL: ELDLTQTPASVSEPVGGTVTIKCQASQSIHSDLAWYQQKPGQRPKLLIYVASYLASGVPSRFSGSGSGTEYTLTISDLECADAATYYCQSTYYGSDYVGGAFGGGTEVVVK", 0.0828],
  ["anti-LILRB4 rabbit monoclonal antibody #216-2 (antibody, V domains shown) VH: EQSLKESGGRLVTPGTPLTLTCTVSGIDLSSYAMTWVRQVPGKGLEYIGFINIVGIAGYATWAKGRFTISKTSTTVDLKVTSPTTEDTATYFCARNWIRLDLWGQGTLVTVSS VL: ELVMTQTPASVSAAVGGTVTISCQSSESLYKKNYLSWFQQKPGQPPKLLIYEASKLASGVPSRFSGSGSGTQFTLTISDVQCDDAASYYCLGDYTNGRDTTFGGGTEVEIK", 0.0647],
  ["anti-LILRB4 rabbit monoclonal antibody #71-1 (antibody, V domains shown, Rabbit mAb) VH: QSVEESGGGLVKPGASLTLTCTASGFSFSSSYHMCWVRQAPGKGLEWIGCIATGYGSTYYASWAKGRFTISKTSSTTVTLQVPSLTAADTATCFCARGYYRYTSDSYGYFDLWGPGTLVTISS VL: ELDLTQTASPVSAAVGGTVTVNCQASQSISSGYLSWYQQKPGQPPKLLIYYASRLASGVPSRFSGSGSGTEYTLTISGVQCDDAATYYCLYVSYSGTTTDNAFGGGTDVEIK", 0.134],
  ["anti-LILRB4 rabbit monoclonal antibody #161-1 (antibody, V domains shown, Rabbit mAb) VH: QSVKESGGRLVTPGTPLTLTCTVSGIDLSVYLMSWVRHSPGKGLEYIGFINSAGITAYATWAKGRFIISKTSTTVDLKVTSPTTEDTATYFCARNWIRLDLWGQGTLVTISS VL: ELDLTQTPASVSAAVGGTVTISCQSSETIYKNYLSWFQQKPGQPPKLLIYESSKLASGVPSRFSGSGSGTQFTLTISDVQCDDAATYYCLGGYTDGRDTIFGGGTELEIK", 0.0691]
]}

Pending binder:
Exercise: Answer with the recorded EC50 for the binder listed here: anti-LILRB4 rabbit monoclonal antibody #161-2 (antibody, V domains shown, Rabbit mAb) VH: QSVKESGGRLVTPGTPLTLTCTVSGIDLSVYLMSWVRHSPGKGLEYIGFINSAGITAYATWAKGRFIISKTSTTVDLKVTSPTTEDTATYFCARNWIRLDLWGQGTLVTISS VL: TQTPASVSAAVGGTVTISCQSSETIYKNYLSWFQQKPGQPPKLLIYESSKLASGVPSRFSGSGSGTQFTLTISDVQCDDAATYYCLGGYTDGRDTIFGGGTEVEIK
Solution: 0.084
